src = paper PMC4112157

target_or_test_system: s15-LOX-1 (Glycine max)
Sequence (P08170 whole entry): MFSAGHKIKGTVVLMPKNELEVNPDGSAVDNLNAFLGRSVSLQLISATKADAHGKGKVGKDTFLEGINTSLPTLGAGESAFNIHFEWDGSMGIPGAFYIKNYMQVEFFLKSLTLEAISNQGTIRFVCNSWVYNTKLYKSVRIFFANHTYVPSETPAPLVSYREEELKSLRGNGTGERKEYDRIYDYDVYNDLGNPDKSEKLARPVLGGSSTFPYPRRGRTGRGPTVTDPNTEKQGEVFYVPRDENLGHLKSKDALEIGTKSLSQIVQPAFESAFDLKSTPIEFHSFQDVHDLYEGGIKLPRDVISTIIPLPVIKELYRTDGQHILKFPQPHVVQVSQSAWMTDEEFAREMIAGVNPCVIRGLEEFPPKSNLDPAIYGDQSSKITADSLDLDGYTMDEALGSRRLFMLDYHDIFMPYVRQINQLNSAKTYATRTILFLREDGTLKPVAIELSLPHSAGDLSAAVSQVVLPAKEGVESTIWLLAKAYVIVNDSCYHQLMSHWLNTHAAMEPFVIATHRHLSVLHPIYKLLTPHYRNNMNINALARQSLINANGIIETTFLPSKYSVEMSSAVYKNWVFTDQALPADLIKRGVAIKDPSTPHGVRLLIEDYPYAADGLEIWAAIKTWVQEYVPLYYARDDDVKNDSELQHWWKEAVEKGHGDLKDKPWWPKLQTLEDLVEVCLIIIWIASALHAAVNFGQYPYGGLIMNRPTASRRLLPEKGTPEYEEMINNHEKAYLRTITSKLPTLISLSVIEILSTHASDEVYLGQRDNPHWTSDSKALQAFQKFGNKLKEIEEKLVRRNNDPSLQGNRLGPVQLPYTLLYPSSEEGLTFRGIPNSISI
property_measured: IC50

>>> observed_measurement("CCCCCC(=O)/C=C/C=C\\CCCCCCCC(=O)O [13-oxo-ODE, 13-oxo-9,11-(Z,E)-octadecadienoic acid]")
"> 100 µM"
>>> observed_measurement("CCCCC/C=C\\C/C=C\\C/C=C\\C=C\\C(=O)CCCC(=O)O [5-oxo-ETE]")
"> 100 µM"

The compound CCCCC/C=C\CC(=O)/C=C/C=C\C/C=C\CCCC(=O)O [12-oxo-ETE] showed IC50 equal to > 100 µM

* * *

target_or_test_system: h12-LOX (Homo sapiens, UniProt P18054)
Sequence (P18054 1-663): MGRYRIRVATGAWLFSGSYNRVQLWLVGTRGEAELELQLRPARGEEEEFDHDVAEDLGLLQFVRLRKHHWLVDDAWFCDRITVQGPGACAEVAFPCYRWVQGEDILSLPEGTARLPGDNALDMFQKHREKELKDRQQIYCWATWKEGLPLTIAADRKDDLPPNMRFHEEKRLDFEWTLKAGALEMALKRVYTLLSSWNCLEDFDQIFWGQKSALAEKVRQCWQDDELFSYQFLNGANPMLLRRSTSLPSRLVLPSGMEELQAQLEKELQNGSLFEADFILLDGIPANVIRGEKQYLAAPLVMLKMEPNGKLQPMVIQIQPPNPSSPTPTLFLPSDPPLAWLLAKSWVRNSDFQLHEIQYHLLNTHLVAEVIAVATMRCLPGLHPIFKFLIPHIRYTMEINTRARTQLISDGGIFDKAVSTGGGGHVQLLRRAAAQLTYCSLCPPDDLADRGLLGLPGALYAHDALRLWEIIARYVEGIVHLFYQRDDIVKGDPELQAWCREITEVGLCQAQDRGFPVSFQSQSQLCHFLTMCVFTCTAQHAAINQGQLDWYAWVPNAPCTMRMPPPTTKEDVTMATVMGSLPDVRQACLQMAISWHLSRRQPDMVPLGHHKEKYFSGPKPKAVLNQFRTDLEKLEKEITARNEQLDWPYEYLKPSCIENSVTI
method_notes: Steady-state inhibition kinetics, h12-LOX
Type: biochemical
particulars: Kic, 0.4–10 μM AA, 25 mM HEPES pH 8.0, 0.01% Triton X-100; Dixon plot and replot
property_measured: Ki (nM)
Return type: number; implicit unit nM.

The reported Ki value, h12-LOX (Homo sapiens, UniProt P18054), for CCCCCC(=O)/C=C/C=C\C/C=C\C/C=C\CCCC(=O)O reads 87
